experimental-parameters: in isopropanol, 328.15 K

smiles-code: Nc1ccc(Cc2ccc(N)c(Cl)c2)cc1Cl
solubility (mole fraction): 0.0623

---

experimental-parameters: in acetonitrile, 313.15 K

smiles-code: Nc1ccc(Cc2ccc(N)c(Cl)c2)cc1Cl
solubility (mole fraction): 0.0419

---

experimental-parameters: in DMF, 323.15 K
quantity-kind: solubility (mole fraction)

smiles-code: Nc1ccc(Cc2ccc(N)c(Cl)c2)cc1Cl
reported: 0.502

---

experimental-parameters: in n-butanol, 288.15 K

smiles-code: Nc1ccc(Cc2ccc(N)c(Cl)c2)cc1Cl
solubility (mole fraction): 0.0323

---

experimental-parameters: in methanol, 303.15 K

smiles-code: Nc1ccc(Cc2ccc(N)c(Cl)c2)cc1Cl
solubility (mole fraction): 0.026

---

experimental-parameters: in ethyl acetate, 288.15 K
quantity-kind: solubility (mole fraction)

smiles-code: Nc1ccc(Cc2ccc(N)c(Cl)c2)cc1Cl
quantity-kind: solubility (mole fraction)
reported: 0.123

---

experimental-parameters: in acetonitrile, 303.15 K
quantity-kind: solubility (mole fraction)

smiles-code: Nc1ccc(Cc2ccc(N)c(Cl)c2)cc1Cl
reported: 0.0323

---

experimental-parameters: in DMAc, 293.15 K

smiles-code: Nc1ccc(Cc2ccc(N)c(Cl)c2)cc1Cl
solubility (mole fraction): 0.366

---

experimental-parameters: in isobutanol, 303.15 K

smiles-code: Nc1ccc(Cc2ccc(N)c(Cl)c2)cc1Cl
solubility (mole fraction): 0.0227

---

experimental-parameters: in ethylene glycol, 318.15 K

smiles-code: Nc1ccc(Cc2ccc(N)c(Cl)c2)cc1Cl
solubility (mole fraction): 0.0208

---

experimental-parameters: in ethanol, 308.15 K
quantity-kind: solubility (mole fraction)

smiles-code: Nc1ccc(Cc2ccc(N)c(Cl)c2)cc1Cl
reported: 0.0424

---

experimental-parameters: in methanol, 288.15 K

smiles-code: Nc1ccc(Cc2ccc(N)c(Cl)c2)cc1Cl
solubility (mole fraction): 0.018

---

experimental-parameters: in n-propanol, 298.15 K
quantity-kind: solubility (mole fraction)

smiles-code: Nc1ccc(Cc2ccc(N)c(Cl)c2)cc1Cl
quantity-kind: solubility (mole fraction)
reported: 0.0369

---

experimental-parameters: in isopropanol, 323.15 K

smiles-code: Nc1ccc(Cc2ccc(N)c(Cl)c2)cc1Cl
solubility (mole fraction): 0.0532

---

experimental-parameters: in acetonitrile, 298.15 K
quantity-kind: solubility (mole fraction)

smiles-code: Nc1ccc(Cc2ccc(N)c(Cl)c2)cc1Cl
quantity-kind: solubility (mole fraction)
reported: 0.0283

---

experimental-parameters: in ethanol, 303.15 K
quantity-kind: solubility (mole fraction)

smiles-code: Nc1ccc(Cc2ccc(N)c(Cl)c2)cc1Cl
quantity-kind: solubility (mole fraction)
reported: 0.0362

---

experimental-parameters: in n-butanol, 323.15 K
quantity-kind: solubility (mole fraction)

smiles-code: Nc1ccc(Cc2ccc(N)c(Cl)c2)cc1Cl
reported: 0.0873

---

experimental-parameters: in ethylene glycol, 298.15 K

smiles-code: Nc1ccc(Cc2ccc(N)c(Cl)c2)cc1Cl
solubility (mole fraction): 0.00975

---

experimental-parameters: in ethyl acetate, 293.15 K

smiles-code: Nc1ccc(Cc2ccc(N)c(Cl)c2)cc1Cl
solubility (mole fraction): 0.134

---

experimental-parameters: in 1,4-dioxane, 298.15 K
quantity-kind: solubility (mole fraction)

smiles-code: Nc1ccc(Cc2ccc(N)c(Cl)c2)cc1Cl
quantity-kind: solubility (mole fraction)
reported: 0.236

---

experimental-parameters: in ethyl acetate, 283.15 K
quantity-kind: solubility (mole fraction)

smiles-code: Nc1ccc(Cc2ccc(N)c(Cl)c2)cc1Cl
reported: 0.115

---

experimental-parameters: in DMAc, 288.15 K

smiles-code: Nc1ccc(Cc2ccc(N)c(Cl)c2)cc1Cl
solubility (mole fraction): 0.348

---

experimental-parameters: in isopropanol, 308.15 K

smiles-code: Nc1ccc(Cc2ccc(N)c(Cl)c2)cc1Cl
solubility (mole fraction): 0.0336

---

experimental-parameters: in isobutanol, 298.15 K

smiles-code: Nc1ccc(Cc2ccc(N)c(Cl)c2)cc1Cl
solubility (mole fraction): 0.0197

---

experimental-parameters: in n-propanol, 288.15 K
quantity-kind: solubility (mole fraction)

smiles-code: Nc1ccc(Cc2ccc(N)c(Cl)c2)cc1Cl
quantity-kind: solubility (mole fraction)
reported: 0.0278

---

experimental-parameters: in n-propanol, 293.15 K

smiles-code: Nc1ccc(Cc2ccc(N)c(Cl)c2)cc1Cl
solubility (mole fraction): 0.0322

---

experimental-parameters: in isobutanol, 328.15 K
quantity-kind: solubility (mole fraction)

smiles-code: Nc1ccc(Cc2ccc(N)c(Cl)c2)cc1Cl
quantity-kind: solubility (mole fraction)
reported: 0.0513

---

experimental-parameters: in water, 303.15 K
quantity-kind: solubility (mole fraction)

smiles-code: Nc1ccc(Cc2ccc(N)c(Cl)c2)cc1Cl
reported: 0.000342

---

experimental-parameters: in ethyl acetate, 328.15 K

smiles-code: Nc1ccc(Cc2ccc(N)c(Cl)c2)cc1Cl
solubility (mole fraction): 0.287

---

experimental-parameters: in isopropanol, 318.15 K
quantity-kind: solubility (mole fraction)

smiles-code: Nc1ccc(Cc2ccc(N)c(Cl)c2)cc1Cl
quantity-kind: solubility (mole fraction)
reported: 0.0447

---

experimental-parameters: in methanol, 283.15 K

smiles-code: Nc1ccc(Cc2ccc(N)c(Cl)c2)cc1Cl
solubility (mole fraction): 0.0163

---

experimental-parameters: in isopropanol, 283.15 K

smiles-code: Nc1ccc(Cc2ccc(N)c(Cl)c2)cc1Cl
solubility (mole fraction): 0.0189

---

experimental-parameters: in DMF, 303.15 K

smiles-code: Nc1ccc(Cc2ccc(N)c(Cl)c2)cc1Cl
solubility (mole fraction): 0.373

---

experimental-parameters: in 1,4-dioxane, 293.15 K

smiles-code: Nc1ccc(Cc2ccc(N)c(Cl)c2)cc1Cl
solubility (mole fraction): 0.217

---

experimental-parameters: in DMF, 308.15 K

smiles-code: Nc1ccc(Cc2ccc(N)c(Cl)c2)cc1Cl
solubility (mole fraction): 0.396

---

experimental-parameters: in DMF, 288.15 K

smiles-code: Nc1ccc(Cc2ccc(N)c(Cl)c2)cc1Cl
solubility (mole fraction): 0.316

---

experimental-parameters: in DMF, 283.15 K
quantity-kind: solubility (mole fraction)

smiles-code: Nc1ccc(Cc2ccc(N)c(Cl)c2)cc1Cl
reported: 0.306

---

experimental-parameters: in 1,4-dioxane, 288.15 K

smiles-code: Nc1ccc(Cc2ccc(N)c(Cl)c2)cc1Cl
solubility (mole fraction): 0.206

---

experimental-parameters: in methanol, 298.15 K
quantity-kind: solubility (mole fraction)

smiles-code: Nc1ccc(Cc2ccc(N)c(Cl)c2)cc1Cl
reported: 0.0231

---

experimental-parameters: in ethylene glycol, 293.15 K

smiles-code: Nc1ccc(Cc2ccc(N)c(Cl)c2)cc1Cl
solubility (mole fraction): 0.00816

---

experimental-parameters: in 1,4-dioxane, 313.15 K

smiles-code: Nc1ccc(Cc2ccc(N)c(Cl)c2)cc1Cl
solubility (mole fraction): 0.32

---

experimental-parameters: in methanol, 323.15 K

smiles-code: Nc1ccc(Cc2ccc(N)c(Cl)c2)cc1Cl
solubility (mole fraction): 0.048

---

experimental-parameters: in 1,4-dioxane, 323.15 K

smiles-code: Nc1ccc(Cc2ccc(N)c(Cl)c2)cc1Cl
solubility (mole fraction): 0.394

---

experimental-parameters: in n-butanol, 313.15 K

smiles-code: Nc1ccc(Cc2ccc(N)c(Cl)c2)cc1Cl
solubility (mole fraction): 0.0632

---

experimental-parameters: in ethanol, 288.15 K

smiles-code: Nc1ccc(Cc2ccc(N)c(Cl)c2)cc1Cl
solubility (mole fraction): 0.0242

---

experimental-parameters: in isopropanol, 298.15 K

smiles-code: Nc1ccc(Cc2ccc(N)c(Cl)c2)cc1Cl
solubility (mole fraction): 0.0261

---

experimental-parameters: in DMAc, 283.15 K

smiles-code: Nc1ccc(Cc2ccc(N)c(Cl)c2)cc1Cl
solubility (mole fraction): 0.339

---

experimental-parameters: in ethylene glycol, 328.15 K

smiles-code: Nc1ccc(Cc2ccc(N)c(Cl)c2)cc1Cl
solubility (mole fraction): 0.0281

---

experimental-parameters: in DMF, 298.15 K

smiles-code: Nc1ccc(Cc2ccc(N)c(Cl)c2)cc1Cl
solubility (mole fraction): 0.347

---

experimental-parameters: in ethyl acetate, 318.15 K
quantity-kind: solubility (mole fraction)

smiles-code: Nc1ccc(Cc2ccc(N)c(Cl)c2)cc1Cl
quantity-kind: solubility (mole fraction)
reported: 0.223

---

experimental-parameters: in isobutanol, 308.15 K
quantity-kind: solubility (mole fraction)

smiles-code: Nc1ccc(Cc2ccc(N)c(Cl)c2)cc1Cl
reported: 0.0259

---

experimental-parameters: in DMF, 313.15 K
quantity-kind: solubility (mole fraction)

smiles-code: Nc1ccc(Cc2ccc(N)c(Cl)c2)cc1Cl
quantity-kind: solubility (mole fraction)
reported: 0.425

---

experimental-parameters: in acetonitrile, 318.15 K

smiles-code: Nc1ccc(Cc2ccc(N)c(Cl)c2)cc1Cl
solubility (mole fraction): 0.048

---

experimental-parameters: in DMAc, 313.15 K

smiles-code: Nc1ccc(Cc2ccc(N)c(Cl)c2)cc1Cl
solubility (mole fraction): 0.466

---

experimental-parameters: in acetonitrile, 288.15 K

smiles-code: Nc1ccc(Cc2ccc(N)c(Cl)c2)cc1Cl
solubility (mole fraction): 0.0225
